system: NCI-H929 complex spheroids, viability % test/control; assay: Anticancer human tumor NCI-H929 cell line growth inhibition [RAS]; conditions: second compound 0.0949 µM; first compound 10 µM; active = viability on the fitted dose curve at most 10% of control; inactive = the rest;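 also: compound exposure lasted seven days before viability was read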
Classes used: Yes (active), No (inactive)

>  <compound>
CC(=O)OC12COC1CC(O)C1(C)C(=O)C(O)C3=C(C)C(OC(=O)C(O)C(NC(=O)OC(C)(C)C)c4ccccc4)CC(O)(C(OC(=O)c4ccccc4)C21)C3(C)C (stereo not drawn) + CCn1c(-c2cc(N3CCN(C)CC3)cnc2C(C)OC)c2c3cc(ccc31)-c1csc(n1)CC(NC(=O)C1CC1C)C(=O)N1CCCC(N1)C(=O)OCC(C)(C)C2

>  <class>
Yes

$$$$
>  <compound>
Cc1nc(N2CCC3(CC2)COC(C)C3N)c(CO)nc1Sc1ccnc(N)c1Cl (stereo not drawn) + CCn1c(-c2cc(N3CCN(C)CC3)cnc2C(C)OC)c2c3cc(ccc31)-c1csc(n1)CC(NC(=O)C1CC1C)C(=O)N1CCCC(N1)C(=O)OCC(C)(C)C2

>  <class>
Yes

$$$$
>  <compound>
C[C@@H](NC(=O)c1ncnc(N)c1Cl)c1ncc(C(=O)Nc2cc(C(F)(F)F)c(Cl)cn2)s1 + CCn1c(-c2cc(N3CCN(C)CC3)cnc2C(C)OC)c2c3cc(ccc31)-c1csc(n1)CC(NC(=O)C1CC1C)C(=O)N1CCCC(N1)C(=O)OCC(C)(C)C2

>  <class>
No

$$$$
>  <compound>
NC1c2ccccc2OC12CCN(c1cnc3c(N4CCCc5ncccc54)n[nH]c3n1)CC2 (stereo not drawn) + CCn1c(-c2cccnc2C(C)OC)c2c3cc(ccc31)N1CCOC(CC(NC(=O)C(C(C)C)N(C)C(=O)C3(F)CCN(C(=O)C#CC(C)(C)N(C)C)CC3)C(=O)N3CCCC(N3)C(=O)OCC(C)(C)C2)C1

>  <class>
No

$$$$
>  <compound>
CC(Nc1ccc2c(c1)OCCn1cc(N3C(=O)OCC3C(F)F)nc1-2)C(N)=O (stereo not drawn) + CCn1c(-c2cccnc2C(C)OC)c2c3cc(ccc31)N1CCOC(CC(NC(=O)C(C(C)C)N(C)C(=O)C3(F)CCN(C(=O)C#CC(C)(C)N(C)C)CC3)C(=O)N3CCCC(N3)C(=O)OCC(C)(C)C2)C1

>  <class>
No

$$$$
>  <compound>
Cc1nc(N2CCC3(CC2)COC(C)C3N)c(CO)nc1Sc1ccnc(N)c1Cl (stereo not drawn) + CCn1c(-c2cccnc2C(C)OC)c2c3cc(ccc31)N1CCOC(CC(NC(=O)C(C(C)C)N(C)C(=O)C3(F)CCN(C(=O)C#CC(C)(C)N(C)C)CC3)C(=O)N3CCCC(N3)C(=O)OCC(C)(C)C2)C1

>  <class>
No

$$$$
>  <compound>
NC1c2ccccc2OC12CCN(c1cnc3c(N4CCCc5ncccc54)n[nH]c3n1)CC2 (stereo not drawn) + CCn1c(-c2cc(N3CCN(C)CC3)cnc2C(C)OC)c2c3cc(ccc31)-c1csc(n1)CC(NC(=O)C1CC1C)C(=O)N1CCCC(N1)C(=O)OCC(C)(C)C2

>  <class>
Yes

$$$$
>  <compound>
CC(C)NCC(C(=O)N1CCN(c2ncnc3c2C(C)CC3O)CC1)c1ccc(Cl)cc1 (stereo not drawn) + CCn1c(-c2cc(N3CCN(C)CC3)cnc2C(C)OC)c2c3cc(ccc31)-c1csc(n1)CC(NC(=O)C1CC1C)C(=O)N1CCCC(N1)C(=O)OCC(C)(C)C2

>  <class>
Yes

$$$$
